target: T1, FX activation peptide 12-mer YDAADLDPTENP (human); assay: peptide ELISA
T1 peptide: YDAADLDPTENP-biotin
Ends that are not written are not given here.
Answer each item with its documented ELISA signal relative to background.
Give bare numbers.

Nb 730C03 (VHH, monovalent Nanobody; also called Nb 730003; not shown: C-terminal FLAG3 and HIS6 tag) VHH: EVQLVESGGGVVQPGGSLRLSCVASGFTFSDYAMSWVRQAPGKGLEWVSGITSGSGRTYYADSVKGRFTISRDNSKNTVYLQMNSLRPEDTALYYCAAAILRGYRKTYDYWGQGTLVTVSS ... 1.28

Lab note: each binder below needs its ELISA signal relative to background filled in.
1. Nb 701C06 (VHH, monovalent Nanobody; not shown: C-terminal FLAG3 and HIS6 tag) VHH: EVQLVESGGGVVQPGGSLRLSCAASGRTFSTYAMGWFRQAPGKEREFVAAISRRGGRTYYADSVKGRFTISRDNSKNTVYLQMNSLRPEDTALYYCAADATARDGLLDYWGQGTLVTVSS
2. Nb 702C12 (VHH, monovalent Nanobody; not shown: C-terminal FLAG3 and HIS6 tag) VHH: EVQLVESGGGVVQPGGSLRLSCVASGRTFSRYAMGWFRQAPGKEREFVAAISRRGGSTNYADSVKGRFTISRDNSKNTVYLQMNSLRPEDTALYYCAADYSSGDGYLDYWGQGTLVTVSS
3. Nb 701B09 (VHH, monovalent Nanobody; also called Nb 701609; not shown: C-terminal FLAG3 and HIS6 tag) VHH: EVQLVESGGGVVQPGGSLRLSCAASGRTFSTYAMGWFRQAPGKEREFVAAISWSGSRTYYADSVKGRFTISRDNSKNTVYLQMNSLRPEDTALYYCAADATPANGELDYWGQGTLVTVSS

1. 0.85
2. 0.87
3. 0.81
